# Reported conditions: in toluene, 310.65 K
Observed property: solubility (mole fraction)
Give the figure only, with no unit attached.

## Input Fill in the blank: the reported solubility (mole fraction) of Cc1ccc(N)c([N+](=O)[O-])c1 is ____.
## Output 0.0411

====

# Reported conditions: in chlorobenzene, 290.65 K
Observed property: solubility (mole fraction)
Field format: numeric only.

## Input Would you kindly share the measured solubility (mole fraction) for Cc1ccc(N)c([N+](=O)[O-])c1 ?
## Output 0.0262

====

# Reported conditions: in isopropanol, 278.15 K
Observed property: solubility (mole fraction)

## Input Which solubility (mole fraction) value belongs to Cc1ccc(N)c([N+](=O)[O-])c1 ?
## Output 0.0102

====

# Reported conditions: in n-propanol, 283.15 K
Observed property: solubility (mole fraction)

## Input Fill in: solubility (mole fraction) of Cc1ccc(N)c([N+](=O)[O-])c1 is ___
## Output 0.0132

====

# Reported conditions: in 2-butanone, 303.15 K
Observed property: solubility (mole fraction)
Please respond with just the number, no unit label.

## Input Can you look up the measured solubility (mole fraction) of Cc1ccc(N)c([N+](=O)[O-])c1 for me?
## Output 0.213

====

# Reported conditions: in n-propanol, 280.65 K
Observed property: solubility (mole fraction)
Output spec: single numeric token, no unit.

## Input Would you kindly share the measured solubility (mole fraction) for Cc1ccc(N)c([N+](=O)[O-])c1 ?
## Output 0.012

====

# Reported conditions: in chlorobenzene, 298.15 K
Observed property: solubility (mole fraction)

## Input Need solubility (mole fraction) of Cc1ccc(N)c([N+](=O)[O-])c1 , thanks.
## Output 0.0349

====

# Reported conditions: in chlorobenzene, 280.65 K
Observed property: solubility (mole fraction)

## Input What value of solubility (mole fraction) has been reported for the following molecule? Cc1ccc(N)c([N+](=O)[O-])c1
## Output 0.0174

====

# Reported conditions: in chlorobenzene, 310.65 K
Observed property: solubility (mole fraction)

## Input Param item = Cc1ccc(N)c([N+](=O)[O-])c1 ; retrieve measured solubility (mole fraction).
## Output 0.0556

====

# Reported conditions: in DMF, 285.65 K
Observed property: solubility (mole fraction)
Returns: the value as a bare number; no unit string appended.

## Input Which solubility (mole fraction) value is on record for Cc1ccc(N)c([N+](=O)[O-])c1 ?
## Output 0.122

====

# Reported conditions: in n-butanol, 300.65 K
Observed property: solubility (mole fraction)
Answer with a number only.

## Input Fill in the blank: the reported solubility (mole fraction) of Cc1ccc(N)c([N+](=O)[O-])c1 is ____.
## Output 0.0273

====

# Reported conditions: in tetrachloromethane, 283.15 K
Observed property: solubility (mole fraction)
Form: value (number only, do not type unit).

## Input So what does the record say about solubility (mole fraction) for Cc1ccc(N)c([N+](=O)[O-])c1 ?
## Output 0.00297

====

# Reported conditions: in DMF, 303.15 K
Observed property: solubility (mole fraction)
Output: the number by itself.

## Input # query: solubility (mole fraction) of entry Cc1ccc(N)c([N+](=O)[O-])c1
## Output 0.194

====

# Reported conditions: in toluene, 313.15 K
Observed property: solubility (mole fraction)

## Input Please report the recorded solubility (mole fraction) for Cc1ccc(N)c([N+](=O)[O-])c1 .
## Output 0.045

====

# Reported conditions: in 1,2-dichloroethane, 305.65 K
Observed property: solubility (mole fraction)
Lab note: jot the number down without any unit.

## Input What does the record list as solubility (mole fraction) for Cc1ccc(N)c([N+](=O)[O-])c1 ?
## Output 0.0747

====

# Reported conditions: in 2-butanone, 305.65 K
Observed property: solubility (mole fraction)

## Input Which solubility (mole fraction) reading was recorded for the molecule Cc1ccc(N)c([N+](=O)[O-])c1 ?
## Output 0.224

====

# Reported conditions: in n-butanol, 285.65 K
Observed property: solubility (mole fraction)
Write no unit; give the number alone.

## Input Query: solubility (mole fraction); subject: Cc1ccc(N)c([N+](=O)[O-])c1
## Output 0.0166

====

# Reported conditions: in ethyl acetate, 293.15 K
Observed property: solubility (mole fraction)
Lab note: jot down the number only; don't add units.

## Input Query: solubility (mole fraction); subject: Cc1ccc(N)c([N+](=O)[O-])c1
## Output 0.113

====

# Reported conditions: in chlorobenzene, 305.65 K
Observed property: solubility (mole fraction)

## Input Given the compound Cc1ccc(N)c([N+](=O)[O-])c1 , what is its reported solubility (mole fraction)?
## Output 0.0463

====

# Reported conditions: in methanol, 278.15 K
Observed property: solubility (mole fraction)
Lab note: jot the number down without any unit.

## Input Which value of solubility (mole fraction) has been reported for Cc1ccc(N)c([N+](=O)[O-])c1 in the records?
## Output 0.00863

====

# Reported conditions: in chlorobenzene, 318.15 K
Observed property: solubility (mole fraction)
Answer with the value's number alone.

## Input I am curious: what solubility (mole fraction) value has been reported for Cc1ccc(N)c([N+](=O)[O-])c1 ?
## Output 0.0738

====

# Reported conditions: in 1,2-dichloroethane, 315.65 K
Observed property: solubility (mole fraction)
# answer = number (no unit)

## Input Reported solubility (mole fraction), molecule Cc1ccc(N)c([N+](=O)[O-])c1 : ____
## Output 0.101

====

# Reported conditions: in tetrachloromethane, 310.65 K
Observed property: solubility (mole fraction)

## Input GET /values?readout=solubility (mole fraction)&item= Cc1ccc(N)c([N+](=O)[O-])c1
## Output 0.00876

====

# Reported conditions: in chlorobenzene, 285.65 K
Observed property: solubility (mole fraction)
// response body must contain only the number

## Input Given Cc1ccc(N)c([N+](=O)[O-])c1 , state its recorded solubility (mole fraction).
## Output 0.0216

====

# Reported conditions: in ethyl acetate, 300.65 K
Observed property: solubility (mole fraction)

## Input Please report the recorded solubility (mole fraction) for Cc1ccc(N)c([N+](=O)[O-])c1 .
## Output 0.136

====

# Reported conditions: in n-butanol, 298.15 K
Observed property: solubility (mole fraction)

## Input # get_value(readout='solubility (mole fraction)', item= Cc1ccc(N)c([N+](=O)[O-])c1 )
## Output 0.0253

====

# Reported conditions: in 1,2-dichloroethane, 293.15 K
Observed property: solubility (mole fraction)

## Input Quick check: solubility (mole fraction) of Cc1ccc(N)c([N+](=O)[O-])c1 ?
## Output 0.0506

====

# Reported conditions: in ethanol, 303.15 K
Observed property: solubility (mole fraction)
Just the number, please.

## Input Name the recorded solubility (mole fraction) for Cc1ccc(N)c([N+](=O)[O-])c1 .
## Output 0.0228

====

# Reported conditions: in n-propanol, 293.15 K
Observed property: solubility (mole fraction)
// response body must contain only the number

## Input So what's the measured solubility (mole fraction) for this one? Cc1ccc(N)c([N+](=O)[O-])c1
## Output 0.0185

====

# Reported conditions: in 1,4-dioxane, 283.15 K
Observed property: solubility (mole fraction)
Just the number.

## Input // query solubility (mole fraction) value for entry Cc1ccc(N)c([N+](=O)[O-])c1
## Output 0.0404

====

# Reported conditions: in n-butanol, 313.15 K
Observed property: solubility (mole fraction)
Reply with the value as a number alone.

## Input Returns the measured solubility (mole fraction) for the input compound. Input: Cc1ccc(N)c([N+](=O)[O-])c1
## Output 0.0406

====

# Reported conditions: in acetonitrile, 300.65 K
Observed property: solubility (mole fraction)
Answer with a number only.

## Input Fill in: solubility (mole fraction) of Cc1ccc(N)c([N+](=O)[O-])c1 is ___
## Output 0.0657

====

# Reported conditions: in DMF, 280.65 K
Observed property: solubility (mole fraction)
When you answer, write just the number.

## Input Look at this molecule and give its reported solubility (mole fraction). Cc1ccc(N)c([N+](=O)[O-])c1
## Output 0.105

====

# Reported conditions: in acetonitrile, 283.15 K
Observed property: solubility (mole fraction)
// no unit, no text: just the number

## Input Which solubility (mole fraction) is listed for Cc1ccc(N)c([N+](=O)[O-])c1 ?
## Output 0.0334

====

# Reported conditions: in tetrachloromethane, 298.15 K
Observed property: solubility (mole fraction)
Simply state the number, no unit and no words.

## Input // solubility (mole fraction) lookup, key: Cc1ccc(N)c([N+](=O)[O-])c1
## Output 0.0055

====

# Reported conditions: in DMF, 290.65 K
Observed property: solubility (mole fraction)
Enter a number only.

## Input Field request: solubility (mole fraction) | item: Cc1ccc(N)c([N+](=O)[O-])c1
## Output 0.14

====

# Reported conditions: in tetrachloromethane, 303.15 K
Observed property: solubility (mole fraction)
In your answer, state the number alone without any accompanying words.

## Input Can you look up the measured solubility (mole fraction) of Cc1ccc(N)c([N+](=O)[O-])c1 for me?
## Output 0.00662
